Data provenance is patent US6849612B2.

- Test system: ICAM-1
- testSummary: ELISA screening for ICAM-1 expression in interleukin-1β-stimulated cells (HUVEC and A549)
- Assay type: cell-based, human
- testParameters: interleukin-1β-stimulated cells, two cell lines (HUVEC, A549)
Strand notation (5' to 3'): a small letter for the sugar, then the base; units joined by * are phosphorothioate-linked, units joined directly phosphodiester-linked; [ ] holds rarer units or linkages, { } end groups; capitals alone tell only the bases. d = 2'-deoxy (DNA)
property: inhibition of ICAM-1 expression, relative activity in words

{"columns": ["substance", "testTarget", "measValue"],
 "data": [
  ["ISIS 1934: P=S, human ICAM-1 Coding Region (351-370), SEQ ID NO 10 (antisense dT*dG*dC*dC*dC*dA*dT*dC*dA*dG*dG*dG*dC*dA*dG*dT*dT*dT*dG*dA)", "ICAM-1", "weak activity"],
  ["ISIS 1933: P=S, human ICAM-1 Coding Region (111-130), SEQ ID NO 9 (antisense dA*dG*dA*dG*dC*dC*dC*dC*dG*dA*dG*dC*dA*dG*dG*dA*dC*dC*dA*dG)", "ICAM-1", "weak activity"]
]}

----------
Listed here: items and their measured ELAM-1 expression (% of control).
- Test system: ELAM-1
- testSummary: ELISA of ELAM-1 expression in TNF-stimulated HUVEC
- Assay type: cell-based, human
- testParameters: 50 nM oligo; HUVEC, TNF-α […] 4 hours
Strand notation (5' to 3'): a small letter for the sugar, then the base; units joined by * are phosphorothioate-linked, units joined directly phosphodiester-linked; [ ] holds rarer units or linkages, { } end groups; capitals alone tell only the bases. d = 2'-deoxy (DNA)

{"columns": ["substance", "property", "measValue"],
 "data": [
  ["ISIS 4759: phosphorothioate, human ELAM-1 5′-UTR 64-83, SEQ ID NO 53, ACAGGATCTCTCAGGTGGGT (antisense dA*dC*dA*dG*dG*dA*dT*dC*dT*dC*dT*dC*dA*dG*dG*dT*dG*dG*dG*dT)", "ELAM-1 expression (% of control)", "20.2 % of control"],
  ["ISIS 2674: P=S, human ELAM-1 3′-UTR 2617-2637, SEQ ID NO 31, CACAATCCTTAAGAACTCTTT (antisense dC*dA*dC*dA*dA*dT*dC*dC*dT*dT*dA*dA*dG*dA*dA*dC*dT*dC*dT*dT*dT)", "ELAM-1 expression (% of control)", "28.1 % of control"],
  ["ISIS 2673: P=S, human ELAM-1 3′-UTR 2656-2676, SEQ ID NO 30, GTATGGAAGATTATAATATAT (antisense dG*dT*dA*dT*dG*dG*dA*dA*dG*dA*dT*dT*dA*dT*dA*dA*dT*dA*dT*dA*dT)", "ELAM-1 expression (% of control)", "53.8 % of control"]
]}

Field: next substance
Consider ISIS 2679: P=S, human ELAM-1 5′-UTR 40-59, SEQ ID NO 33, CTGCTGCCTCTGTCTCAGGT (antisense dC*dT*dG*dC*dT*dG*dC*dC*dT*dC*dT*dG*dT*dC*dT*dC*dA*dG*dG*dT) . Its measured ELAM-1 expression (% of control) is 6.0 % of control

----------
Listed here: items and their measured VCAM-1 EXPRESSION 30 nM oligo (VCAM-1 expression is given as % of control).
- Test system: VCAM-1
- testSummary: ELISA of VCAM-1 expression in TNF-stimulated HUVEC
- Type: cell-based, human
- testParameters: 30 nM oligo, TNF-α 16 hours
Strand notation (5' to 3'): a small letter for the sugar, then the base; units joined by * are phosphorothioate-linked, units joined directly phosphodiester-linked; [ ] holds rarer units or linkages, { } end groups; capitals alone tell only the bases. d = 2'-deoxy (DNA)

Below, each entry is followed by its recorded VCAM-1 EXPRESSION 30 nM oligo (VCAM-1 expression is given as % of control) result.
{"columns": ["substance", "measValue"],
 "data": [
  ["ISIS 3791: phosphorothioate, human VCAM-1 5′UTR 38-58, SEQ ID NO 61, CCTGGGAGGGTATTCAGCT (antisense dG*dC*dC*dT*dG*dG*dG*dA*dG*dG*dG*dT*dA*dT*dT*dC*dA*dG*dC*dT)", "92.6 % of control"],
  ["ISIS 3792: phosphorothioate, human VCAM-1 AUG 110-129, SEQ ID NO 63, GGCATTTTAAGTTGCTGTCG (DNA, all phosphorothioate, methylation of C not given here)", "68.7 % of control"],
  ["ISIS 5875: phosphorothioate, human VCAM-1 CODING 2183-2203, SEQ ID NO 68, GTCTTTGTTGTTTTCTCTTCC (DNA, all phosphorothioate, methylation of C not given here)", "59.2 % of control"],
  ["ISIS 5884: phosphorothioate, human VCAM-1 5′-UTR 1-19, SEQ ID NO 60, CGATGCAGATACCGCGGAGT (antisense dC*dG*dA*dT*dG*dC*dA*dG*dA*dT*dA*dC*dC*dG*dC*dG*dG*dA*dG*dT)", "79.2 % of control"],
  ["ISIS 5885: phosphorothioate, human VCAM-1 E/I 1633-1649 + intron, SEQ ID NO 66, TTACCATTGACATAAAGTGTT (DNA, all phosphorothioate, methylation of C not given here)", "84.4 % of control"],
  ["ISIS 5863: phosphorothioate, human VCAM-1 CODING 745-764, SEQ ID NO 64, CAGCCTGCCTTACTGTGGGC (DNA, all phosphorothioate, methylation of C not given here)", "95.8 % of control"],
  ["ISIS 3794: phosphorothioate, human VCAM-1 TERMIN. 2344-2362, SEQ ID NO 69, TGAACATATCAAGCATTAGC (DNA, all phosphorothioate, methylation of C not given here)", "75.3 % of control"],
  ["ISIS 3800: phosphorothioate, human VCAM-1 3′-UTR 2620-2639, SEQ ID NO 70, GCAATCTTGCTATGGCATAA (DNA, all phosphorothioate, methylation of C not given here)", "64.4 % of control"]
]}

Reading of VCAM-1 EXPRESSION 30 nM oligo (VCAM-1 expression is given as % of control) for ISIS 5847: phosphorothioate, human VCAM-1 3′-UTR 2957-2976, SEQ ID NO 72, AACATCTCCGTACCATGCCA (DNA, all phosphorothioate, methylation of C not given here) with VCAM-1: 51.8 % of control

Reading of VCAM-1 EXPRESSION 30 nM oligo (VCAM-1 expression is given as % of control) for ISIS 5874: phosphorothioate, human VCAM-1 CODING 1032-1052, SEQ ID NO 65, CTTGAACAATTAATTCCACCT (DNA, all phosphorothioate, methylation of C not given here) with VCAM-1: 66.5 % of control

----------
- Test system: ELAM-1
- testSummary: ELISA of ELAM-1 expression in TNF-stimulated HUVEC
- Assay type: cell-based, human
- testParameters: 50 nM oligo; HUVEC, TNF-α […] 4 hours
Strand notation (5' to 3'): a small letter for the sugar, then the base; units joined by * are phosphorothioate-linked, units joined directly phosphodiester-linked; [ ] holds rarer units or linkages, { } end groups; capitals alone tell only the bases. d = 2'-deoxy (DNA)
Listed here: items and their measured ELAM-1 expression (% of control).

{"columns": ["substance", "property", "measValue"],
 "data": [
  ["ISIS 4730: phosphorothioate, human ELAM-1 I/E 3′UTR 2006-2025, SEQ ID NO 56, TCCCCAGATGCACCTGTTT (antisense dT*dT*dC*dC*dC*dC*dA*dG*dA*dT*dG*dC*dA*dC*dC*dT*dG*dT*dT*dT)", "ELAM-1 expression (% of control)", "2.3 % of control"]
]}

Consider ISIS 2687: P=S, human ELAM-1 5′-UTR 17-36, SEQ ID NO 37, TATAGGAGTTTTGATGTGAA (antisense dT*dA*dT*dA*dG*dG*dA*dG*dT*dT*dT*dT*dG*dA*dT*dG*dT*dG*dA*dA) . Its measured ELAM-1 expression (% of control) is 73.8 % of control

Consider ISIS 4764: phosphorothioate, human ELAM-1 5′-UTR 1-19, SEQ ID NO 52, GAAGTCAGCCAAGAACAGCT (antisense dG*dA*dA*dG*dT*dC*dA*dG*dC*dC*dA*dA*dG*dA*dA*dC*dA*dG*dC*dT) . Its measured ELAM-1 expression (% of control) is 50.2 % of control

Consider ISIS 4720: phosphorothioate, human ELAM-1 3′-UTR 3093-3112, SEQ ID NO 59, GGAATGCAAAGCACATCCAT (antisense dG*dG*dA*dA*dT*dG*dC*dA*dA*dA*dG*dC*dA*dC*dA*dT*dC*dC*dA*dT) . Its measured ELAM-1 expression (% of control) is 70.6 % of control
